# Assay overview: In vitro skin permeation and metabolism, two-compartment diffusion cell (Example 6)
# Assay type: in vitro ADME, hairless mouse (HRS/J strain)
# Condition summary: mouse, vehicle 10% Butyl laurate-90% Ethanol; of total permeated; read-out: % Metabolite
Measured property: metabolised at 5 h (%)
Form entry: value (%) — number only.

Sure, the documented metabolised at 5 h for CCC1=C2CC[C@]3(C)[C@@H](OC(C)=O)CC[C@H]3[C@@H]2CCC1=O [Inocoterone acetate] is 57.7

====

# Assay overview: In vitro skin permeation and metabolism of Carbopol 940 gels, Franz diffusion cell (Example 13)
# Assay type: in vitro ADME, hairless mouse
# Condition summary: mouse, Carbopol 940 gel: inocoterone acetate 10.0, isopropyl myristate 6.0, ethanol 50.0% w/w; read-out: % Metabolite
Measured property: metabolised at 5 h

Sure, the documented metabolised at 5 h for CCC1=C2CC[C@]3(C)[C@@H](OC(C)=O)CC[C@H]3[C@@H]2CCC1=O [Inocoterone acetate] is 63.4%

====

# Assay overview: In vitro skin permeation and metabolism, two-compartment diffusion cell (Example 6)
# Format: in vitro ADME, hairless mouse (HRS/J strain)
# Condition summary: mouse, vehicle 10% Ethyl laurate-90% Ethanol; of total permeated; read-out: % Metabolite
Measured property: metabolised at 5 h

Sure, the documented metabolised at 5 h for CCC1=C2CC[C@]3(C)[C@@H](OC(C)=O)CC[C@H]3[C@@H]2CCC1=O [Inocoterone acetate] is 67.5%

====

# Assay overview: In vitro skin permeation and metabolism, two-compartment diffusion cell (Example 6)
# Type: in vitro ADME, hairless mouse (HRS/J strain)
# Condition summary: mouse, vehicle Ethanol; of total permeated; read-out: % Metabolite
Measured property: metabolised at 5 h (%)
Form entry: value (%) — number only.

Sure, the documented metabolised at 5 h for CCC1=C2CC[C@]3(C)[C@@H](OC(C)=O)CC[C@H]3[C@@H]2CCC1=O [Inocoterone acetate] is 100

====

# Assay overview: In vitro skin permeation and metabolism, two-compartment diffusion cell (Example 6)
# Assay type: in vitro ADME, hairless mouse (HRS/J strain)
# Condition summary: mouse, vehicle 10% Propyl laurate-90% Ethanol; of total permeated; read-out: % Metabolite
Measured property: metabolised at 5 h (%)
Form entry: value (%) — number only.

Sure, the documented metabolised at 5 h for CCC1=C2CC[C@]3(C)[C@@H](OC(C)=O)CC[C@H]3[C@@H]2CCC1=O [Inocoterone acetate] is 70.2

====

# Assay overview: In vitro skin permeation and metabolism of Carbopol 940 gels, Franz diffusion cell (Example 13)
# Format: in vitro ADME, hairless mouse
# Condition summary: mouse, Carbopol 940 gel: inocoterone acetate 10.0, ethyl laurate 6.0, ethanol 50.0% w/w; read-out: % Metabolite
Measured property: metabolised at 5 h (%)
Form entry: value (%) — number only.

Sure, the documented metabolised at 5 h for CCC1=C2CC[C@]3(C)[C@@H](OC(C)=O)CC[C@H]3[C@@H]2CCC1=O [Inocoterone acetate] is 57.8

====

# Assay overview: In vitro skin permeation and metabolism, two-compartment diffusion cell (Example 6)
# Format: in vitro ADME, hairless mouse (HRS/J strain)
# Condition summary: mouse, vehicle 10% Ethyl oleate-90% Ethanol; of total permeated; read-out: % Metabolite
Measured property: metabolised at 5 h (%)
Form entry: value (%) — number only.

Sure, the documented metabolised at 5 h for CCC1=C2CC[C@]3(C)[C@@H](OC(C)=O)CC[C@H]3[C@@H]2CCC1=O [Inocoterone acetate] is 66.4
